Values compiled from patent US20230312550A1.

measurement protocol: Caco-2 cell permeability
recorded conditions: human
readout type: efflux ratio
// return just the number, without any unit appended

Field: example entries. Status: answers known.
N#C[C@@H]1CSCN1C(=O)CNC(=O)c1ccnc2ccc(N3C[C@H]4C[C@@H]3CO4)cc12; 31
CC1(C)CN(c2ccc3nccc(C(=O)NCC(=O)N4CSC[C@H]4C#N)c3c2)CCO1; 23
CCC1(O)CCN(c2ccc3nccc(C(=O)NCC(=O)N4CSC[C@H]4C#N)c3c2)CC1; 46
CC1(C)CCN(c2ccc3nccc(C(=O)NCC(=O)N4CSC[C@H]4C#N)c3c2)C1=O; 65
Cn1nccc1-c1ccc2nccc(C(=O)NCC(=O)N3CSC[C@H]3C#N)c2c1; 46

Quick check: efflux ratio of C[C@@H]1CN(c2ccc3nccc(C(=O)NCC(=O)N4CSC[C@H]4C#N)c3c2)C[C@H](C)[C@@H]1O ?
59

Quick check: efflux ratio of CC1(C)CCN(c2ccc3nccc(C(=O)NCC(=O)N4CSC[C@H]4C#N)c3c2)CC1 ?
2.5

Quick check: efflux ratio of N#C[C@@H]1CSCN1C(=O)CNC(=O)c1ccnc2ccc(N3C[C@@H]4C[C@H]3CO4)cc12 ?
21

Quick check: efflux ratio of C[C@@]1(O)CCN(c2ccc3nccc(C(=O)NCC(=O)N4CSC[C@H]4C#N)c3c2)C1 ?
74

Quick check: efflux ratio of COCC1(C)CN(c2ccc3nccc(C(=O)NCC(=O)N4CSC[C@H]4C#N)c3c2)C1 ?
10

Quick check: efflux ratio of CC1(C(F)F)CN(c2ccc3nccc(C(=O)NCC(=O)N4CSC[C@H]4C#N)c3c2)C1 ?
6.5

Quick check: efflux ratio of CO[C@@H]1CN(c2ccc3nccc(C(=O)NCC(=O)N4CSC[C@H]4C#N)c3c2)[C@H]1C ?
9.6

Quick check: efflux ratio of N#C[C@@H]1CSCN1C(=O)CNC(=O)c1ccnc2ccc(N3CC(F)C3)cc12 ?
6.2

Quick check: efflux ratio of CC1(C)Cc2c(-c3ccc4nccc(C(=O)NCC(=O)N5CSC[C@H]5C#N)c4c3)cnn2C1 ?
170

Quick check: efflux ratio of CC1(O)CCN(c2ccc3nccc(C(=O)NCC(=O)N4CSC[C@H]4C#N)c3c2)CC1 ?
24

Quick check: efflux ratio of N#C[C@@H]1CSCN1C(=O)CNC(=O)c1ccnc2ccc(N3CCOC(F)(F)C3)cc12 ?
18

Quick check: efflux ratio of N#C[C@@H]1CSCN1C(=O)CNC(=O)c1ccnc2ccc(N3CC(F)(CF)C3)cc12 ?
15

Quick check: efflux ratio of CC(=O)N1CC2(C1)CN(c1ccc3nccc(C(=O)NCC(=O)N4CSC[C@H]4C#N)c3c1)C2 ?
3.1

Quick check: efflux ratio of CC(F)(F)C1CN(c2ccc3nccc(C(=O)NCC(=O)N4CSC[C@H]4C#N)c3c2)C1 ?
15

Quick check: efflux ratio of N#C[C@@H]1CSCN1C(=O)CNC(=O)c1ccnc2ccc(N3CC(N4CCOCC4)C3)cc12 ?
50

Quick check: efflux ratio of N#C[C@@H]1CSCN1C(=O)CNC(=O)c1c(F)cnc2ccc(N3CCOCC3)cc12 ?
32

Quick check: efflux ratio of CS(=O)(=O)C[C@@H]1CN(c2ccc3nccc(C(=O)NCC(=O)N4CSC[C@H]4C#N)c3c2)CCO1 ?
29

Quick check: efflux ratio of N#C[C@@H]1CSCN1C(=O)CNC(=O)c1ccnc2ccc(N3C4CCC3COC4)cc12 ?
25

Quick check: efflux ratio of N#C[C@@H]1CSCN1C(=O)CNC(=O)c1ccnc2ccc(N3CC(F)(F)OC(F)(F)C3)cc12 ?
17

Quick check: efflux ratio of Cc1noc(C)c1-c1ccc2nccc(C(=O)NCC(=O)N3CSC[C@H]3C#N)c2c1 ?
65

###

The following are reported IC50 results, target or system human Fibroblast activation protein alpha (hFAP) (Homo sapiens (Human)). Also: hFAP 2.4 pM.
Express it in nM; write the number only.

Field: example entries. Status: answers known.
CC1(C)Cc2c(-c3ccc4nccc(C(=O)NCC(=O)N5CSC[C@H]5C#N)c4c3)cnn2C1 [Example 123]; 0.083
CC1(C)CCN(c2ccc3nccc(C(=O)NCC(=O)N4CSC[C@H]4C#N)c3c2)CC1 [Example 33]; 0.27
C[C@H]1COCCCN1c1ccc2nccc(C(=O)NCC(=O)N3CSC[C@H]3C#N)c2c1 [Example 63]; 0.19
CO[C@H]1CCN(c2ccc3nccc(C(=O)NCC(=O)N4CSC[C@H]4C#N)c3c2)C1 [Example 207]; 0.17

Okay, now this compound:
Quick check: IC50 of COC1(C)CCN(c2ccc3nccc(C(=O)NCC(=O)N4CSC[C@H]4C#N)c3c2)CC1 [Example 42] ?
0.053

###

measurement protocol: Metabolic stability in human liver microsomes (HLM)
recorded conditions: human, HLM CLint, n = 1 or average of n = 2-3
readout type: microsomal CLint

Field: example entries. Status: answers known.
N#C[C@@H]1CSCN1C(=O)CNC(=O)c1ccnc2ccc(N3C[C@H](O)C(F)(F)C3)cc12 (mixture of isomers) [Example 224]; < 3 µL/min/mg
CC1(C)CN(c2ccc3nccc(C(=O)NCC(=O)N4CSC[C@H]4C#N)c3c2)CCO1 [Example 88]; 22 µL/min/mg
CC1(C)OCCN(c2ccc3nccc(C(=O)NCC(=O)N4CSC[C@H]4C#N)c3c2)C1=O [Example 16]; < 3 µL/min/mg
CO[C@@H]1CCN(c2ccc3nccc(C(=O)NCC(=O)N4CSC[C@H]4C#N)c3c2)C1 [Example 161]; 6.7 µL/min/mg
N#C[C@@H]1CSCN1C(=O)CNC(=O)c1ccnc2ccc(N3CCC(=O)CC3)cc12 [Example 230]; < 3 µL/min/mg

Quick check: microsomal CLint of C[C@@H]1CN(c2ccc3nccc(C(=O)NCC(=O)N4CSC[C@H]4C#N)c3c2)CCCO1 [Example 64] ?
56 µL/min/mg

Quick check: microsomal CLint of C[C@@H]1CCCN1c1ccc2nccc(C(=O)NCC(=O)N3CSC[C@H]3C#N)c2c1 [Example 211] ?
200 µL/min/mg

###

tgt: FAP (Homo sapiens (Human))
Sequence (Q12884 38-760): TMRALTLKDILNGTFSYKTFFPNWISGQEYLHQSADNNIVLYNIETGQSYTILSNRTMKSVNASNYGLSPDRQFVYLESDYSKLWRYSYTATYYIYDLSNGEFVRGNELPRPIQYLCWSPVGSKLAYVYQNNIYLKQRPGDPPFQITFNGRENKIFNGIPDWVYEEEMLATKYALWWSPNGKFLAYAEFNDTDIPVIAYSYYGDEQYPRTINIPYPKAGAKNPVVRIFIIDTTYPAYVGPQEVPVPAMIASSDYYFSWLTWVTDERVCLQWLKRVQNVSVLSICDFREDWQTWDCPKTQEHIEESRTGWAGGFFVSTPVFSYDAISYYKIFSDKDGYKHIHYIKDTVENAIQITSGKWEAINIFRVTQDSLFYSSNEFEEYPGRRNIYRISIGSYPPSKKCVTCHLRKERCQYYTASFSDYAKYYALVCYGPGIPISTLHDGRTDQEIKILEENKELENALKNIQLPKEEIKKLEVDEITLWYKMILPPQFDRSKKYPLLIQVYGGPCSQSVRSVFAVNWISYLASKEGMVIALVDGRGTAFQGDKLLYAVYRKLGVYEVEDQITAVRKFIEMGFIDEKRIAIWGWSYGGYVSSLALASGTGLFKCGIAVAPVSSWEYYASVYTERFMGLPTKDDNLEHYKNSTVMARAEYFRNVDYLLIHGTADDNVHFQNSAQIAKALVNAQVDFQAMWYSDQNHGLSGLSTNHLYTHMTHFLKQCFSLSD
measurement protocol: hFAP inhibition assay
Assay type: biochemical
recorded conditions: hFAP […], Ala-Pro-AMC 20 μM; n = 1 or geometric mean n = 2-3
readout type: IC50 (nM)
Express it in nM; write the number only.

Field: example entries. Status: answers known.
CC1(C)CN(c2ccc3nccc(C(=O)NCC(=O)N4CSC[C@H]4C#N)c3c2)CCO1 [Example 88]; 0.31
N#C[C@@H]1CSCN1C(=O)CNC(=O)c1ccnc2ccc(N3C[C@@H](F)[C@@H](F)C3)cc12 [Example 50]; 0.34
C[C@H]1COC[C@H](C)N1c1ccc2nccc(C(=O)NCC(=O)N3CSC[C@H]3C#N)c2c1 [Example 103]; 0.31

Recorded IC50 for N#C[C@@H]1CSCN1C(=O)CNC(=O)c1ccnc2ccc(N3CCC34CCC4)cc12 [Example 19] with FAP (Homo sapiens (Human)), please?
0.66

###

tgt: FAP (Homo sapiens (Human))
measurement protocol: hFAP inhibition assay
Format: biochemical
recorded conditions: hFAP […], Ala-Pro-AMC 20 μM; n = 1 or geometric mean n = 2-3
Threshold 0.3 nM. IC50 below it: TRUE. IC50 at it or above: FALSE.

The examples below pair each entry with its known result.
N#C[C@@H]1CSCN1C(=O)CNC(=O)c1ccnc2ccc(N3CC[C@@H](F)C3)cc12 [Example 52]; TRUE
CC1(F)CCN(c2ccc3nccc(C(=O)NCC(=O)N4CSC[C@H]4C#N)c3c2)CC1 [Example 34]; TRUE
CC1(C)CCN(c2ccc3nccc(C(=O)NCC(=O)N4CSC[C@H]4C#N)c3c2)C1 [Example 48]; TRUE
CC1(CS(C)(=O)=O)CN(c2ccc3nccc(C(=O)NCC(=O)N4CSC[C@H]4C#N)c3c2)C1 [Example 188]; TRUE
C[C@@H]1CCN(c2ccc3nccc(C(=O)NCC(=O)N4CSC[C@H]4C#N)c3c2)C1 [Example 55]; TRUE

Identify whether the compound N#C[C@@H]1CSCN1C(=O)CNC(=O)c1ccnc2ccc(N3CC(F)C3)cc12 [Example 21] records IC50 below 0.3 nM.
TRUE

###

The following are reported Kd results, target or system hFAP (M39-A757) (Homo sapiens (Human), UniProt Q12884).
Provide the measurement as a number trailed by its unit.

Field: example entries. Status: answers known.
CO[C@H]1CCCN(c2ccc3nccc(C(=O)NCC(=O)N4CSC[C@H]4C#N)c3c2)C1 (mixture of isomers) [Example 41]; 0.093 nM
CO[C@@H]1CN(c2ccc3nccc(C(=O)NCC(=O)N4CSC[C@H]4C#N)c3c2)[C@H]1C [Example 30]; 0.042 nM
COC1(C)CCN(c2ccc3nccc(C(=O)NCC(=O)N4CSC[C@H]4C#N)c3c2)CC1 [Example 42]; 0.03 nM
N#C[C@@H]1CSCN1C(=O)CNC(=O)c1ccnc2ccc(N3CC4(CCS4)C3)cc12 [Example 222]; 0.022 nM
N#C[C@@H]1CSCN1C(=O)CNC(=O)c1ccnc2ccc(N3C4CCCC3COC4)cc12 [Example 86]; 0.081 nM
N#C[C@@H]1CSCN1C(=O)CNC(=O)c1ccnc2ccc(N3CCOC(F)(F)C3)cc12 [Example 4]; 0.079 nM

Recorded Kd for C[C@H]1N(c2ccc3nccc(C(=O)NCC(=O)N4CSC[C@H]4C#N)c3c2)CC1(F)F (mixture of isomers) [Example 159] with hFAP (M39-A757) (Homo sapiens (Human), UniProt Q12884), please?
0.039 nM

Recorded Kd for N#C[C@@H]1CSCN1C(=O)CNC(=O)c1ccnc2ccc(N3CCSCC3)cc12 [Example 3] with hFAP (M39-A757) (Homo sapiens (Human), UniProt Q12884), please?
0.095 nM
